For each of the binders below, state its interaction score.
System under test: T1, 4H797-AA
T1 chain: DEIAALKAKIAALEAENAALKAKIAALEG
Assay details: two-hybrid library CCmax;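 also: natural log of median RNA to DNA barcode read ratio; higher means stronger binding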
Test context: mean of both orientations
// keep it numeric: no unit symbol after the value

[in] Look at this binder and give its reported interaction score. DKNAALEAKIAALEAENAALKAEIAALKG [4H3354-AA]
[out] -0.991

[in] Look at this binder and give its reported interaction score. DKIAALEAKNAALEAEIAALKAEIAALKG [4H2442-AA]
[out] -1.52

[in] Look at this binder and give its reported interaction score. DEIAALKAEIAALEAKNAALEAKNAALKG [4H568-AA]
[out] -1.39

[in] Look at this binder and give its reported interaction score. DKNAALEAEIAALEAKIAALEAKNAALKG [4H3112-AA]
[out] -1.25
